Target: human orexin 1 receptor (hOx1R) (Homo sapiens, UniProt O43613)
Construct: expressed in transfected cells
Sequence (O43613 1-425): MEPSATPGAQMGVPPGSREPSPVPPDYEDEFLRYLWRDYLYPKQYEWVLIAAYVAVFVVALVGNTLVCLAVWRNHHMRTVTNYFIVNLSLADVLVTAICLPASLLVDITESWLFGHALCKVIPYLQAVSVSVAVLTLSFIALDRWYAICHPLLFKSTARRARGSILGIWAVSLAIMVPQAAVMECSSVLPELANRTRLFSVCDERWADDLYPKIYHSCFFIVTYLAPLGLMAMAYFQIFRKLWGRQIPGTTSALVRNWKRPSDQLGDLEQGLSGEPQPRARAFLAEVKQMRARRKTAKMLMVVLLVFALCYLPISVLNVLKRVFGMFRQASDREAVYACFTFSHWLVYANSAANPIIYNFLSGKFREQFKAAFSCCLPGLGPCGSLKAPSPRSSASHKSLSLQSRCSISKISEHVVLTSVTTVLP
Experiment: Radioligand binding assay ([125I]orexin A competition), hOx1R
Settings: CHO or HEK cell membranes, 1 h room temperature
Exercise: state measured pKd for each of the molecules provided.
Answers are plain numbers, as −log10 of the molar value.

Sample answers from the record:
>>> df
                              record_smiles  test_result
0  CN(C(=O)c1ccc2ccccc2c1)[C@H](CCNC(=O)c1nc2ccccc2n1C)Cc1ccc(F)cc1         6.35
1  CN(C(=O)c1ccc2c(c1)OCO2)[C@H](CCNC(=O)c1ccccn1)Cc1ccccc1         6.75
2  CN(C(=O)c1ccc2c(c1)CCN2)[C@H](CCNC(=O)c1ccccn1)Cc1ccccc1         7.28

Look at each molecule and report its pKd.
1. COc1cc(OC)cc(C(=O)N(C)[C@H](CCNC(=O)c2cccn2C)Cc2ccccc2)c1
2. CN(C(=O)c1cccc2ccccc12)[C@H](CCNC(=O)c1nc2ccccc2n1C)Cc1ccccc1
3. CN(C(=O)c1ccc2c(c1)CCO2)[C@H](CCNC(=O)c1ccccn1)Cc1ccccc1
4. CN(C(=O)c1ccc2[nH]ccc2c1)[C@H](CCNC(=O)c1ccccn1)Cc1ccccc1

1. 6.91
2. 6.48
3. 6.29
4. 8.15

Go through the items and report each one's pKd.
1. CN(C(=O)c1ccc2c(c1)OCO2)[C@H](CCNC(=O)c1cccn1C)Cc1ccccc1
2. CN(C(=O)c1ccc2ccccc2c1)[C@H](CCNC(=O)c1nc2ccccc2n1C)Cc1ccc(Cl)cc1
3. CN(C(=O)c1ccc2c(c1)OCO2)[C@H](CCNC(=O)c1ccccn1)Cc1ccc(Cl)cc1
4. COc1cc(F)cc(C(=O)N(C)[C@H](CCNC(=O)c2cccn2C)Cc2ccccc2)c1
5. C[C@H](CNC(=O)c1ccccn1)[C@H](Cc1ccccc1)N(C)C(=O)c1ccccc1

1. 7.03
2. 6.11
3. 5.65
4. 6.54
5. 6.32
